- Tested on: P. falciparum 3D7 growth, pLDH absorbance
- method_description: blood-stage malaria parasite growth potency – strain 3D7, dose response (AID 2305)
pIC50: −log10 of the molar value.
Property: pIC50; scope: individual molecules
outcome_measure: pIC50

molecule	system	outcome_measure	reported
NS(=O)(=O)NCCCN1CCN(c2ccccc2)CC1	P. falciparum 3D7 growth, pLDH absorbance	pIC50	6.01
CNC(=O)c1cnc(Nc2ccc(OCC(O)CN(C)C)cc2)nc1Nc1cccc(Br)c1 (stereo not given)	P. falciparum 3D7 growth, pLDH absorbance	pIC50	6.92
O=C(NCc1ccc(Cl)c(Cl)c1)c1cccc(C2CCCN(Cc3ccc4nc[nH]c4c3)C2)c1 (stereo not given)	P. falciparum 3D7 growth, pLDH absorbance	pIC50	6.03
CC1CCC2(CC1)N=C(N)N=C(N)N2OCCCCCCCCO (stereo not given)	P. falciparum 3D7 growth, pLDH absorbance	pIC50	6.82
OCCN1CCN(Cc2cccc(-c3ccc(-c4nc5ccc(C(F)(F)F)cc5[nH]4)cc3)c2)CC1	P. falciparum 3D7 growth, pLDH absorbance	pIC50	6.25
O=C(Nc1ccc(S(=O)(=O)N2CCOCC2)cc1)c1cc(-c2cc(Cl)ccc2O)n[nH]1	P. falciparum 3D7 growth, pLDH absorbance	pIC50	6.11
Cc1ccnc(NC(c2cccc(OCc3ccccc3)c2)c2ccc3cccnc3c2O)c1 (stereo not given)	P. falciparum 3D7 growth, pLDH absorbance	pIC50	6.07
O=C(Nc1cccc(-c2cccc(-c3nc4ccccc4[nH]3)c2)c1)c1csnn1	P. falciparum 3D7 growth, pLDH absorbance	pIC50	6.04
FC(F)(F)COc1c(CCNCCCCNCCc2ccc3ccccc3c2OCC(F)(F)F)ccc2ccccc12	P. falciparum 3D7 growth, pLDH absorbance	pIC50	6.46
Cc1cc(NC(=O)Nc2ccc3sccc3c2)c2ccccc2n1	P. falciparum 3D7 growth, pLDH absorbance	pIC50	6.28
Cc1cc(C2CCN(CCCCNC(=O)c3ccc(-c4ccc(C(F)(F)F)cc4)cc3)CC2)c(C)cc1OCCOC1CCCCO1 (stereo not given)	P. falciparum 3D7 growth, pLDH absorbance	pIC50	6.10
COc1ccc2ncc(Cl)c(N3CCC(CCNCc4ccc5c(n4)NC(=O)CS5)CC3)c2c1	P. falciparum 3D7 growth, pLDH absorbance	pIC50	6.02
COc1ccc(C(=O)NC(Nc2ccc([N+](=O)[O-])cc2)C(Cl)(Cl)Cl)cc1 (stereo not given)	P. falciparum 3D7 growth, pLDH absorbance	pIC50	5.97
CCc1c(C)nc(-n2nc(C)cc2NC(=O)CCc2ccccc2)[nH]c1=O	P. falciparum 3D7 growth, pLDH absorbance	pIC50	6.12
Cc1cc(NCCC(=O)Nc2ccccc2)nc(NCCOc2ccccc2)n1	P. falciparum 3D7 growth, pLDH absorbance	pIC50	5.94
CCN(CCNc1nc(NCCc2cnc[nH]2)nc(N(CCC#N)Cc2ccccc2)n1)c1cccc(C)c1	P. falciparum 3D7 growth, pLDH absorbance	pIC50	6.15
COc1ccc(CNCCCCCCNCCc2ccc(Cl)cc2)cc1OC	P. falciparum 3D7 growth, pLDH absorbance	pIC50	5.86
CCC[C@@H]([C@@H](CC1CCCCC1)C(=O)N[C@H](C(=O)Nc1nccs1)C(C)(C)SC)N(O)C=O	P. falciparum 3D7 growth, pLDH absorbance	pIC50	6.82
CC(C)Cn1c(Sc2ccc(C#N)c([N+](=O)[O-])c2)nnc1-c1ccccc1Cl	P. falciparum 3D7 growth, pLDH absorbance	pIC50	6.05
COc1cc(Cc2c(C)nc3nc(N)nc(N)c3c2C)c(Br)c(OC)c1OC	P. falciparum 3D7 growth, pLDH absorbance	pIC50	6.40
